Test Target: panel of 442 kinases (Homo sapiens)
Construct: purchased Ambit Biosciences (scanMAXX KINOMEscan)
Method Notes: biochemical
Assay type: binding
Settings: kinase SIK2; 1 µM; read-out: SIK2 (% of control at 1 µM)
Below, each of the compounds is paired with its reported remaining activity at 1 µM value.
Answers without a unit are incomplete; give the number and then its unit.

FC(F)c1nc2ccccc2n1-c1nc(N2CCOCC2)nc(N2CCOCC2)n1 78%
COc1ncc(-c2ccc3nccc(-c4ccnnc4)c3c2)cc1NS(=O)(=O)c1ccc(F)cc1F 100%
Cn1c(=O)n(-c2ccc(C(C)(C)C#N)cc2)c2c3cc(-c4cnc5ccccc5c4)ccc3ncc21 82%

Given the compound Nc1cc(C(F)(F)F)c(-c2cc(N3CCOCC3)nc(N3CCOCC3)n2)cn1 , what is its reported remaining activity at 1 µM?
100%

----------
Test Target: panel of 442 kinases (Homo sapiens, UniProt Q9UK32)
Construct: purchased Ambit Biosciences (scanMAXX KINOMEscan)
Sequence (Q9UK32 whole entry): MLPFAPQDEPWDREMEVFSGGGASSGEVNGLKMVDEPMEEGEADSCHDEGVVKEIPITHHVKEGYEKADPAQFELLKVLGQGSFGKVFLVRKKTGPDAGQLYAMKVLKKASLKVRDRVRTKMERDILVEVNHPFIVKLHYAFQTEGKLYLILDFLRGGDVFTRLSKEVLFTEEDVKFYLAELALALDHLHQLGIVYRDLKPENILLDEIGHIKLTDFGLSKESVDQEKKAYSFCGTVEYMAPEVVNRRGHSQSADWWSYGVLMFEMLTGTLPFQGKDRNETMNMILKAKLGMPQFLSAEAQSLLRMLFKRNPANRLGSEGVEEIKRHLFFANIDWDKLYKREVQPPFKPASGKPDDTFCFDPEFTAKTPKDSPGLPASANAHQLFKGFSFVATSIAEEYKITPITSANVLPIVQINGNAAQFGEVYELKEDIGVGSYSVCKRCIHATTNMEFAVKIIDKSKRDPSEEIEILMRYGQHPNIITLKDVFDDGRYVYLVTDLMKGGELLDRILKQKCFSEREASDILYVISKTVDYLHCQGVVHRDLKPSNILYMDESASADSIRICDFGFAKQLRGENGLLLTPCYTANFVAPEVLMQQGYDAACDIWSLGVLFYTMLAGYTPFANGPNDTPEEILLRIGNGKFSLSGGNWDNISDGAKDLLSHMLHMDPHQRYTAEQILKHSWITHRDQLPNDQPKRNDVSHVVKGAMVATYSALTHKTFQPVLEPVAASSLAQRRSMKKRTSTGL
Method Notes: biochemical
Assay type: binding
Settings: kinase RSK4(Kin.Dom.2-C-terminal); 1 µM; read-out: RSK4(Kin.Dom.2-C-terminal) (% of control at 1 µM)
Readout Name: remaining activity at 1 µM
Answers without a unit are incomplete; give the number and then its unit.

Given the compound Cn1c(=O)n(-c2ccc(C(C)(C)C#N)cc2)c2c3cc(-c4cnc5ccccc5c4)ccc3ncc21 [Dactolisib] , what is its reported remaining activity at 1 µM?
82%

Given the compound FC(F)c1nc2ccccc2n1-c1nc(N2CCOCC2)nc(N2CCOCC2)n1 [ZSTK474] , what is its reported remaining activity at 1 µM?
91%

Given the compound Nc1cc(C(F)(F)F)c(-c2cc(N3CCOCC3)nc(N3CCOCC3)n2)cn1 [Buparlisib] , what is its reported remaining activity at 1 µM?
100%

Given the compound COc1ncc(-c2ccc3nccc(-c4ccnnc4)c3c2)cc1NS(=O)(=O)c1ccc(F)cc1F [Omipalisib] , what is its reported remaining activity at 1 µM?
79%

----------
Method Notes: Plasma pharmacokinetics in rats
Settings: male, Sprague-Dawley, rat, po, 10 mg/kg
Readout Name: AUC (µM·h)
Quick note: give the figure in µM·h, leave out the unit.

Given the compound COc1cccc2c1nc(C(F)F)n2-c1nc(N2CCOCC2)nc(N2CCN(S(=O)(=O)CCN(C)C)CC2)n1 , what is its reported AUC?
0.579

----------
Test Target: panel of 442 kinases (Homo sapiens, UniProt P22607, G697C)
Construct: purchased Ambit Biosciences (scanMAXX KINOMEscan)
Sequence (P22607 23-806 G697C): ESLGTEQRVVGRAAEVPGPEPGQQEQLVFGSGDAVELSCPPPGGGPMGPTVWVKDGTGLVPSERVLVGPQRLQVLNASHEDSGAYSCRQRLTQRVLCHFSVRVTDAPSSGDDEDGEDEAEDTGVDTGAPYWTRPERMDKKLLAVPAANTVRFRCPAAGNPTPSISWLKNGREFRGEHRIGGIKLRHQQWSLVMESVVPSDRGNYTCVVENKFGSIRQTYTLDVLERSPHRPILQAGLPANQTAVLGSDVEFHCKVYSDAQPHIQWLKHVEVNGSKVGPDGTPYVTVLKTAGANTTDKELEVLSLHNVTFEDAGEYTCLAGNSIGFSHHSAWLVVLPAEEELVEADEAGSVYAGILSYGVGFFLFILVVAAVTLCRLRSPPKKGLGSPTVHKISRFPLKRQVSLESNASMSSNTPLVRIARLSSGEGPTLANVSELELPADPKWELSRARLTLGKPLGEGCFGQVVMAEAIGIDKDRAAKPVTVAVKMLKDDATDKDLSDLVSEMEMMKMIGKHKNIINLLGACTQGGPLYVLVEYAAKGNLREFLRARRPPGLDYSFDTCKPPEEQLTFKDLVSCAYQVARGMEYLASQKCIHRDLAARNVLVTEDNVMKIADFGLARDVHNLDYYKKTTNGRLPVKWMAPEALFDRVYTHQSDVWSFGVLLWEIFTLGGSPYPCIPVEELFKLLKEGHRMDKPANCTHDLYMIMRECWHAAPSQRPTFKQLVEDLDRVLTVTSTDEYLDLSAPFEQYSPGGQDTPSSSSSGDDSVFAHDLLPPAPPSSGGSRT
Method Notes: biochemical
Assay type: binding
Settings: FGFR3(G697C); 1 µM; read-out: % of control at 1 µM
Below, each of the molecules is paired with its reported remaining activity at 1 µM value.
Quick note: give the figure in %, leave out the unit.

COc1ncc(-c2ccc3nccc(-c4ccnnc4)c3c2)cc1NS(=O)(=O)c1ccc(F)cc1F 68

Given the molecule Nc1cc(C(F)(F)F)c(-c2cc(N3CCOCC3)nc(N3CCOCC3)n2)cn1 , what is its reported remaining activity at 1 µM?
86

Given the molecule FC(F)c1nc2ccccc2n1-c1nc(N2CCOCC2)nc(N2CCOCC2)n1 , what is its reported remaining activity at 1 µM?
100

Given the molecule Cn1c(=O)n(-c2ccc(C(C)(C)C#N)cc2)c2c3cc(-c4cnc5ccccc5c4)ccc3ncc21 , what is its reported remaining activity at 1 µM?
90

This collection of values is drawn from paper PMC5564600.
